Test: Aqueous solubility (High Throughput Method)
Format: physicochemical
Conditions: McIlvaine buffer pH 6.8 with 2.5% DMSO, kinetic from dmso stock, McIlvaine buffer pH 6.8, 2.5% DMSO, 24 h shaking
Measurement Type: solubility at 24 h (µg/mL)
Write the answer as a number in µg/mL, unit excluded.

Record excerpt, results attached:
Molecule	Units	solubility at 24 h
CN1C(=O)N(c2cccc(C(F)(F)F)c2)C2=C(C(=O)CC2)[C@H]1c1ccc(C#N)cc1C(N)=O	µg/mL	84
CN1C(=O)N(c2cccc(C(F)(F)F)c2)C2=C(C(=O)CCC2)[C@H]1c1ccc(C#N)cc1-c1ccn(C)c(=O)c1	µg/mL	72
CN1C(=O)N(c2cccc(C(F)(F)F)c2)C2=C(C(=O)CC2)C1c1ccc(C#N)cc1-c1ccncn1 (stereo not drawn)	µg/mL	83
CN1C(=O)N(c2cccc(C(F)(F)F)c2)C2=C(C(=O)CC2)[C@H]1c1ccc(C#N)cc1-c1ccc(=O)n(C)c1	µg/mL	53
CN1C(=O)N(c2cccc(C(F)(F)F)c2)C2=C(C(=O)CC2)[C@H]1c1ccc(C#N)cc1CNC(C)(C)C	µg/mL	48

IN: Indicate the recorded solubility at 24 h value for this molecule: CN1C(=O)N(c2cccc(C(F)(F)F)c2)C2=C(C(=O)CC2)C1c1ccc(C#N)cc1-c1cncnc1 (stereo not drawn)
OUT: 50

###

Target: Human neutrophil elastase (Homo sapiens (Human), UniProt P08246)
Assay: Human Neutrophil Elastase Assay
Conditions: substrate MeOSuc-Ala-Ala-Pro-Val-AMC 250 μM, pH 7.5
Entries and their measured IC50 follow.
Write the answer as a number in nM, unit excluded.

IN: Indicate the recorded IC50 value for this molecule: CN1C(=O)N(c2cccc(C(F)(F)F)c2)C2=C(C(=O)CC2)C1c1ccc(C#N)cc1C(=O)NCc1cncn1C (stereo not drawn)
OUT: 4.2

IN: Indicate the recorded IC50 value for this molecule: CN1C(=O)N(c2ccnc(C(F)(F)F)c2)C2=C(C(=O)CC2)C1c1ccc(C#N)cc1C(=O)N1CCCCC1 (stereo not drawn)
OUT: 181

IN: Indicate the recorded IC50 value for this molecule: CC(=O)N1CCN(C(=O)c2cc(C#N)ccc2C2C3=C(CCC3=O)N(c3cccc(C(F)(F)F)c3)C(=O)N2C)CC1 (stereo not drawn)
OUT: 4.6

IN: Indicate the recorded IC50 value for this molecule: CNCCN(C)C(=O)c1cc(C#N)ccc1C1C2=C(CCC2=O)N(c2cccc(C(F)(F)F)c2)C(=O)N1C (stereo not drawn)
OUT: 1.4

IN: Indicate the recorded IC50 value for this molecule: CN1C(=O)N(c2cccc(C(F)(F)F)c2)C2=C(C(=O)CC2)C1c1ccc(C#N)cc1C(=O)N1CC(O)C1 (stereo not drawn)
OUT: 2.5

IN: Indicate the recorded IC50 value for this molecule: N#Cc1ccc(C2NC(=O)N(c3cccc(C(F)(F)F)c3)C3=C2C(=O)CC3)c(-c2ccoc2)c1 (stereo not drawn)
OUT: 10.1

###

Experiment: Drug transport across human Caco-2 cells
Assay type: in vitro ADME
Details: apparent permeability coefficient, basal-to-apical (secretory), Caco-2 monolayers, pH 7.2, 37° C., read-out: PEBA
Description: Assay for Determination of Drug Transport Across Human Caco-2 Cells The assay provides information on the potential of a compound to pass the cell membrane, on the extent of oral absorption as well as on whether the compound is actively transported by uptake and/or efflux transporters. […] Apparent permeability coefficients (PE) of the compounds across the Caco-2 monolayers are measured (pH 7.2, 37° C.) in apical-to-basal (AB) (absorptive) and basal-to-apical (BA) (secretory) transport direction. […]
Entries and their measured Papp B→A at 10 µM follow.

Compound	Papp B→A at 10 µM
CN1C(=O)N(c2cccc(C(F)(F)F)c2)C2=C(C(=O)CCC2)C1c1ccc(C#N)cc1-c1ccn(C)c(=O)c1 (centres unmarked) [Example 15.8]	57 ×10⁻⁶ cm/s
CN1C(=O)N(c2cccc(C(F)(F)F)c2)C2=C(C(=O)CC2)[C@H]1c1ccc(C#N)cc1CNC(C)(C)C	84 ×10⁻⁶ cm/s

Now for a further compound.
IN: Indicate the recorded Papp B→A at 10 µM value for this compound: CN1C(=O)N(c2cccc(C(F)(F)F)c2)C2=C(C(=O)CC2)C1c1ccc(C#N)cc1-c1cnn(C)c1 (centres unmarked)
OUT: 76 ×10⁻⁶ cm/s

###

Target: Human neutrophil elastase (Homo sapiens (Human))
Experiment: Human Neutrophil Elastase Assay
Conditions: substrate MeOSuc-Ala-Ala-Pro-Val-AMC 250 μM, pH 7.5
Measurement Type: IC50 (nM)
Write the answer as a number in nM, unit excluded.

Record excerpt, results attached:
Compound	Target Or System	IC50 / nM
CNC(=O)c1cc(C#N)ccc1C1C2=C(CCC2=O)N(c2ccnc(C(F)(F)F)c2)C(=O)N1C (stereo not shown) [Example 8.1]	Human neutrophil elastase (Homo sapiens (Human))	25
CN1C(=O)N(c2cccc(C(F)(F)F)c2)C2=C(C(=O)CC2)[C@H]1c1ccc(C#N)cc1CNC(C)(C)C [Example 24]	Human neutrophil elastase (Homo sapiens (Human))	1.9

Now for a further compound.
IN: Recall the reported IC50 of CN1C(=O)N(c2cccc(C(F)(F)F)c2)C2=C(C(=O)CC2)C1c1ccc(C#N)cc1-c1ccn(C)c(=O)c1 (stereo not shown) [Example 11.7] when tested on Human neutrophil elastase (Homo sapiens (Human)).
OUT: 1.2

###

Target: neutrophil elastase in zymosan-stimulated human plasma (Homo sapiens (Human), UniProt P08246)
Sequence (P08246 30-247): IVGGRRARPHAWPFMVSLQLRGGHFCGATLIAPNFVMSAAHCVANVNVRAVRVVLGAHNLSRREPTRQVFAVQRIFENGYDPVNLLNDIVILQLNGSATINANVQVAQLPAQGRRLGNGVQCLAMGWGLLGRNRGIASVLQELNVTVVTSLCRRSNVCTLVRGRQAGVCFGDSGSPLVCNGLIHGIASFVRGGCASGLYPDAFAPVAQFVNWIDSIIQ
Assay: Neutrophil elastase inhibitory activity in human plasma
Conditions: human plasma from zymosan-stimulated blood
Could you please mark 1 (yes) for values of EC50 below 2 nM and 0 (no) for values at or above it?

IN: Report whether reported EC50 is lower than 2 nM (strictly) for CN1C(=O)N(c2cccc(C(F)(F)F)c2)C2=C(C(=O)CCC2)[C@H]1c1ccc(C#N)cc1-c1ccn(C)c(=O)c1
OUT: 1 (yes)

IN: Report whether reported EC50 is lower than 2 nM (strictly) for CN1C(=O)N(c2cccc(C(F)(F)F)c2)C2=C(C(=O)CC2)[C@H]1c1ccc(C#N)cc1CNC1CCOCC1
OUT: 0 (no)

IN: Report whether reported EC50 is lower than 2 nM (strictly) for CN1C(=O)N(c2cccc(C(F)(F)F)c2)C2=C(C(=O)CCC2)C1c1ccc(C#N)cc1-c1ccn(C)c(=O)c1 (centres unmarked)
OUT: 0 (no)

IN: Report whether reported EC50 is lower than 2 nM (strictly) for CN1C(=O)N(c2cccc(C(F)(F)F)c2)C2=C(C(=O)CC2)[C@H]1c1ccc(C#N)cc1CNC(C)(C)C
OUT: 0 (no)

IN: Report whether reported EC50 is lower than 2 nM (strictly) for CN1C(=O)N(c2cccc(C(F)(F)F)c2)C2=C(C(=O)CC2)[C@H]1c1ccc(C#N)cc1-c1ccc(=O)n(C)c1
OUT: 1 (yes)

IN: Report whether reported EC50 is lower than 2 nM (strictly) for CN1C(=O)N(c2cccc(C(F)(F)F)c2)C2=C(C(=O)CC2)C1c1ccc(C#N)cc1-c1ccncn1 (centres unmarked)
OUT: 0 (no)

IN: Report whether reported EC50 is lower than 2 nM (strictly) for CN1C(=O)N(c2cccc(C(F)(F)F)c2)C2=C(C(=O)CC2)[C@H]1c1ccc(C#N)cc1C(N)=O
OUT: 1 (yes)

###

Molecular target: Human neutrophil elastase (Homo sapiens (Human), UniProt P08246)
Test: Human Neutrophil Elastase Assay
Conditions: substrate MeOSuc-Ala-Ala-Pro-Val-AMC 250 μM, pH 7.5
Measurement Type: IC50 (nM)
Write the answer as a number in nM, unit excluded.

Record excerpt, results attached:
Compound	IC50 [nM]
CN1C(=O)N(c2cccc(C(F)(F)F)c2)C2=C(C(=O)CC2)C1c1ccc(C#N)cc1C(=O)NC1CCOCC1 (stereo not shown)	8.4
C#CCNC(=O)c1cc(C#N)ccc1C1C2=C(CCC2=O)N(c2cccc(C(F)(F)F)c2)C(=O)N1C (stereo not shown)	3.7
CN1C(=O)N(c2cccc(C(F)(F)F)c2)C2=C(C(=O)CC2)[C@H]1c1ccc(C#N)cc1CNC1CCOCC1	1.9
CN1C(=O)N(c2cccc(C(F)(F)F)c2)C2=C(C(=O)CC2)C1c1ccc(C#N)cc1C(=O)NCCCO (stereo not shown)	5

IN: Recall the reported IC50 of CN1C(=O)N(c2cccc(C(F)(F)F)c2)C2=C(C(=O)CC2)C1c1ccc(C#N)cc1C(=O)N[C@@H]1CCNC1 (stereo partly shown) when tested on Human neutrophil elastase (Homo sapiens (Human), UniProt P08246).
OUT: 6.4

###

Molecular target: Human neutrophil elastase (Homo sapiens (Human))
Test: Human Neutrophil Elastase Assay
Conditions: substrate MeOSuc-Ala-Ala-Pro-Val-AMC 250 μM, pH 7.5
Entries and their measured pIC50 follow.
Conceptually, pIC50 converts a concentration in mol/L into minus its log10.

Compound	pIC50
CN1C(=O)N(c2cccc(C(F)(F)F)c2)C2=C(C(=O)CC2)C1c1ccc(C#N)cc1CNC1CCOCC1 (stereo not shown)	8.54
CN1C(=O)N(c2cccc(C(F)(F)F)c2)C2=C(C(=O)CCC2)C1c1ccc(C#N)cc1-c1ccn(C)n1 (stereo not shown)	8.55

IN: Indicate the recorded pIC50 value for this compound: CN(C)C(=O)c1cc(C#N)ccc1C1C2=C(CCCC2=O)N(c2cccc(C(F)(F)F)c2)C(=O)N1C (stereo not shown)
OUT: 8.96

IN: Indicate the recorded pIC50 value for this compound: CN1C(=O)N(c2cccc(C(F)(F)F)c2)C2=C(C(=O)CC2)C1c1ccc(C#N)cc1C(=O)N1CCC(O)CC1 (stereo not shown)
OUT: 7.99
